# Measured Target: ALDH2 (Homo sapiens)
# Construct: His-tag (N); made in house; host or cells: E. coli BL21
# Sequence (P05091 18-517): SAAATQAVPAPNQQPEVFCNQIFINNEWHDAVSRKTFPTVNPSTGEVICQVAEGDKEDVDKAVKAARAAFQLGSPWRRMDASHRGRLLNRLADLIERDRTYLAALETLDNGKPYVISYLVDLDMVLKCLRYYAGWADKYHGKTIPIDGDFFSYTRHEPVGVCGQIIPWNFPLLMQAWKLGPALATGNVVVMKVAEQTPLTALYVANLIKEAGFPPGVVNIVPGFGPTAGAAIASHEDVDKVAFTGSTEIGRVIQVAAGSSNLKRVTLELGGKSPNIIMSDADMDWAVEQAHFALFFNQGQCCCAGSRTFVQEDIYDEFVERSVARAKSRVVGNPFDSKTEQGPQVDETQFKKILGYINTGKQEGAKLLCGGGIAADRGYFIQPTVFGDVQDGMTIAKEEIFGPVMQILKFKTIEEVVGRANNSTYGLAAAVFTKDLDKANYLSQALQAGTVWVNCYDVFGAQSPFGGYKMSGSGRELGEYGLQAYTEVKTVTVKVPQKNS
# Assay Info: ALDH2 activity with 20 μM of the compound (Table 3)
# Type: biochemical
# Condition Notes: 20 μM compound
activity at 20 µM values, listed per item

Record excerpt, results attached:
Form field activity at 20 µM, entry O=C(NCc1cc(Cl)c2c(c1)OCO2)c1cc(-c2ncccc2CO)ccc1OCC1CC1 [AC45] : 100 to 150%

The measured activity at 20 µM associated with COc1ccc(CNC(=O)c2cc(-c3ncccc3CO)ccc2O)cc1F [AC94] reads 100 to 150%

activity at 20 µM in this record for CCCOc1ccc(-c2cnccc2CO)cc1C(=O)NCc1ccc(OC)c(F)c1 [AC99] : 150 to 250%

Given item [2H]C([2H])([2H])Oc1ccc(CNC(=O)c2cc(-c3ncccc3CO)ccc2OCC2CC2)cc1F [AC153] , the value recorded as its activity at 20 µM is > 250%

Continuing:
The value of activity at 20 µM measured for the compound COc1ccc(CNC(=O)c2cc(-c3ncccc3CO)cnc2OCC2CC2)cc1F [AC8] turned out to be > 250%

Please fill in: activity at 20 µM reported for CCNCc1ccccc1-c1ccc(OCC2CC2)c(C(=O)NCc2ccc(OC)c(F)c2)c1 [AC84] = 150 to 250%

Per the record, COc1ccc(CNC(=O)c2cc(-c3ncccc3CO)ccc2OC2CCCC2)cc1F [AC108] has activity at 20 µM of > 250%

Looking up [2H]C([2H])([2H])Oc1ccc(CNC(=O)c2cc(-c3ncccc3CO)ccc2OC([2H])([2H])C2CC2)cc1F [AC159] , I found its activity at 20 µM recorded as > 250%

Query COc1ccc(CNC(=O)c2cc(-c3ncccc3CO)ccc2OCC2CC2)cc1OC [AC44] yields activity at 20 µM of 150 to 250%
